Target: CB1 cannabinoid receptors (CNR1 cAMP Hunter cell line) (Homo sapiens, UniProt P21554)
Sequence (P21554 whole entry): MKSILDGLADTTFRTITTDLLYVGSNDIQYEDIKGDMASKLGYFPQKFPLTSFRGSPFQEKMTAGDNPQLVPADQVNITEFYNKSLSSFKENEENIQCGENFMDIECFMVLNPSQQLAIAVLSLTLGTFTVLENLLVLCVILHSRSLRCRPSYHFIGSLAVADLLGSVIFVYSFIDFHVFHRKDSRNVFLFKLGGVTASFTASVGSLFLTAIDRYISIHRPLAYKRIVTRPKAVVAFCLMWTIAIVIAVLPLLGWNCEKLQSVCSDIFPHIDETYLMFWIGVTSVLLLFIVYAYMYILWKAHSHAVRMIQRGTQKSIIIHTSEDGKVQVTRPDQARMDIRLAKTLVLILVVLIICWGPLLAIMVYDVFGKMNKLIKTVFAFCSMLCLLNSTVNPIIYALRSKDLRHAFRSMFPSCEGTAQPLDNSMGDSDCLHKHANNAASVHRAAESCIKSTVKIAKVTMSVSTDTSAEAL
Experiment: cAMP Hunter (DiscoveRx HitHunter cAMP XS+) allosteric modulation assay with CP55,940 at EC20
pEC50: −log10 of the molar value.
Listed next: entries and their corresponding pEC50.
Attribute Measured: pEC50

O=[N+]([O-])C[C@@H](c1ccccn1)c1c(-c2ccccc2)[nH]c2ccccc12 (single isomer, unassigned) : 6.38
O=[N+]([O-])CC(c1ccccn1)c1c(-c2ccccc2)[nH]c2ccccc12 (racemic) : 6.34
O=[N+]([O-])CC(c1ccccc1)c1c(-c2ccc(F)cc2)[nH]c2ccccc12 (stereo not shown) : 6.49
